Values compiled from patent US11814435B2.

- target system: Cyno BCMA
- test details: Kinetics and affinity of cyno BCMA/human IgG interactions by SPR (Bio-Rad Proteon XPR36)
- Type: binding, cynomolgus
- assay conditions: 37° C.
Please go through the items and note down their kd Cyno.
Numbers only, in s⁻¹.

I need kd Cyno for every entry listed below, if you could help.
1. A02_Rd4_6 nM_C22: anti-BCMA antibody (antibody, V domains shown) VH: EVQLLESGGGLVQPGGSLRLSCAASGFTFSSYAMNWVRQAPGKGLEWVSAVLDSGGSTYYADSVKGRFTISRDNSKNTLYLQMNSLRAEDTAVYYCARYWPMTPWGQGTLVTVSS VL: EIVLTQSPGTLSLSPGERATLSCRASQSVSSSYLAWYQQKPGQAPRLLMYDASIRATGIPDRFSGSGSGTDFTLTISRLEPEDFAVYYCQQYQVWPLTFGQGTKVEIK
2. COMBO_Rd4_0.6 nM_C23: anti-BCMA antibody (antibody, V domains shown) VH: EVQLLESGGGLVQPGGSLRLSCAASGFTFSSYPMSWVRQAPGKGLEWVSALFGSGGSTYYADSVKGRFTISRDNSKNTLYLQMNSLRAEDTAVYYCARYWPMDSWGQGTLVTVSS VL: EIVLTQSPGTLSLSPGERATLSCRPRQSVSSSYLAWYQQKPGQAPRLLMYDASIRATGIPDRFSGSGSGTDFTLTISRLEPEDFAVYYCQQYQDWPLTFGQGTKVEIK

### Response
0.000324
0.000531
